Values were extracted from patent US20140171357A1.

Tested on: methicillin-susceptible S. aureus (MSSA, 22)
Test: MIC broth microdilution, MSSA
Details: MSSA (22)
# MIC 50% per entry
parameter-measured: MIC 50%

{"columns": ["molecule", "assayed-system", "parameter-measured", "result"],
 "data": [
  ["CNC(CC(C)C)C(=O)NC1C(=O)NC(CC(N)=O)C(=O)NC2C(=O)NC3C(=O)NC(C(=O)NC(C(=O)O)c4cc(O)c(CNCCOCCOCCN)c(O)c4-c4cc3ccc4O)C(O)c3ccc(c(Cl)c3)Oc3cc2cc(c3OC2OC(CO)C(O)C(O)C2OC2CC(C)(NCc3ccc(OCc4ccc(Cl)c(Cl)c4)cc3)C(O)C(C)O2)Oc2ccc(cc2Cl)C1O (stereo not drawn) [Compound 28]", "methicillin-susceptible S. aureus (MSSA, 22)", "MIC 50%", "0.06 µg/mL"],
  ["CNC(CC(C)C)C(=O)NC1C(=O)NC(CC(N)=O)C(=O)NC2C(=O)NC3C(=O)NC(C(=O)NC(C(=O)O)c4cc(O)c(CNCCOCCOCC[N+](C)(C)C)c(O)c4-c4cc3ccc4O)C(O)c3ccc(c(Cl)c3)Oc3cc2cc(c3OC2OC(CO)C(O)C(O)C2OC2CC(C)(NCc3ccc(-c4ccc(Cl)cc4)cc3)C(O)C(C)O2)Oc2ccc(cc2Cl)C1O (stereo not drawn) [Compound 13]", "methicillin-susceptible S. aureus (MSSA, 22)", "MIC 50%", "0.12 µg/mL"],
  ["CNC(CC(C)C)C(=O)NC1C(=O)NC(CC(N)=O)C(=O)NC2C(=O)NC3C(=O)NC(C(=O)NC(C(=O)O)c4cc(O)c(CNCCOCCOCC[N+](C)(C)C)c(O)c4-c4cc3ccc4O)C(O)c3ccc(c(Cl)c3)Oc3cc2cc(c3OC2OC(CO)C(O)C(O)C2OC2CC(C)(NCc3ccc(OCc4ccc(Cl)c(Cl)c4)cc3)C(O)C(C)O2)Oc2ccc(cc2Cl)C1O (stereo not drawn) [Compound 29]", "methicillin-susceptible S. aureus (MSSA, 22)", "MIC 50%", "0.06 µg/mL"],
  ["CNC(CC(C)C)C(=O)NC1C(=O)NC(CC(N)=O)C(=O)NC2C(=O)NC3C(=O)NC(C(=O)NC(C(=O)NCCOCCOCCN)c4cc(O)cc(O)c4-c4cc3ccc4O)C(O)c3ccc(c(Cl)c3)Oc3cc2cc(c3OC2OC(CO)C(O)C(O)C2OC2CC(C)(NCc3ccc(OCc4ccc(Cl)c(Cl)c4)cc3)C(O)C(C)O2)Oc2ccc(cc2Cl)C1O (stereo not drawn) [Compound 27]", "methicillin-susceptible S. aureus (MSSA, 22)", "MIC 50%", "0.06 µg/mL"],
  ["CNC(CC(C)C)C(=O)NC1C(=O)NC(CC(N)=O)C(=O)NC2C(=O)NC3C(=O)NC(C(=O)NC(C(=O)O)c4cc(O)c(CNCCOCCOCCN)c(O)c4-c4cc3ccc4O)C(O)c3ccc(c(Cl)c3)Oc3cc2cc(c3OC2OC(CO)C(O)C(O)C2OC2CC(C)(NCc3ccc(-c4ccc(Cl)cc4)cc3)C(O)C(C)O2)Oc2ccc(cc2Cl)C1O (stereo not drawn) [Compound 11]", "methicillin-susceptible S. aureus (MSSA, 22)", "MIC 50%", "0.12 µg/mL"],
  ["CNC(CC(C)C)C(=O)NC1C(=O)NC(CC(N)=O)C(=O)NC2C(=O)NC3C(=O)NC(C(=O)NC(C(=O)O)c4cc(O)c(CNCCOCCOCCOCCN(C)C)c(O)c4-c4cc3ccc4O)C(O)c3ccc(c(Cl)c3)Oc3cc2cc(c3OC2OC(CO)C(O)C(O)C2OC2CC(C)(NCc3ccc(-c4ccc(Cl)cc4)cc3)C(O)C(C)O2)Oc2ccc(cc2Cl)C1O (stereo not drawn) [Compound 14]", "methicillin-susceptible S. aureus (MSSA, 22)", "MIC 50%", "0.12 µg/mL"],
  ["CCCCCCCCCCNCCNC1(C)CC(OC2C(Oc3c4cc5cc3Oc3ccc(cc3Cl)C(O)C3NC(=O)C(NC(=O)C5NC(=O)C(CC(N)=O)NC(=O)C(NC(=O)C(CC(C)C)NC)C(O)c5ccc(c(Cl)c5)O4)c4ccc(O)c(c4)-c4c(cc(O)c(CNCCOCCOCCN)c4O)C(C(=O)O)NC3=O)OC(CO)C(O)C2O)OC(C)C1O (stereo not drawn) [Compound 3]", "methicillin-susceptible S. aureus (MSSA, 22)", "MIC 50%", "0.03 µg/mL"],
  ["CCCCCCCCCCNCCNC1(C)CC(OC2C(Oc3c4cc5cc3Oc3ccc(cc3Cl)C(O)C3NC(=O)C(NC(=O)C5NC(=O)C(CC(N)=O)NC(=O)C(NC(=O)C(CC(C)C)NC)C(O)c5ccc(c(Cl)c5)O4)c4ccc(O)c(c4)-c4c(cc(O)c(CNCCOCCOCC[N+](C)(C)C)c4O)C(C(=O)O)NC3=O)OC(CO)C(O)C2O)OC(C)C1O (stereo not drawn) [Compound 1]", "methicillin-susceptible S. aureus (MSSA, 22)", "MIC 50%", "0.06 µg/mL"],
  ["CNC(CC(C)C)C(=O)NC1C(=O)NC(CC(N)=O)C(=O)NC2C(=O)NC3C(=O)NC(C(=O)NC(C(=O)NCCOCCOCCN(C)C)c4cc(O)cc(O)c4-c4cc3ccc4O)C(O)c3ccc(c(Cl)c3)Oc3cc2cc(c3OC2OC(CO)C(O)C(O)C2OC2CC(C)(NCc3ccc(-c4ccc(Cl)cc4)cc3)C(O)C(C)O2)Oc2ccc(cc2Cl)C1O (stereo not drawn) [Compound 10]", "methicillin-susceptible S. aureus (MSSA, 22)", "MIC 50%", "0.06 µg/mL"],
  ["CNC(CC(C)C)C(=O)NC1C(=O)NC(CC(N)=O)C(=O)NC2C(=O)NC3C(=O)NC(C(=O)NC(C(=O)O)c4cc(O)c(CNCCOCCOCCN(C)C)c(O)c4-c4cc3ccc4O)C(O)c3ccc(c(Cl)c3)Oc3cc2cc(c3OC2OC(CO)C(O)C(O)C2OC2CC(C)(NCc3ccc(-c4ccc(Cl)cc4)cc3)C(O)C(C)O2)Oc2ccc(cc2Cl)C1O (stereo not drawn) [Compound 12]", "methicillin-susceptible S. aureus (MSSA, 22)", "MIC 50%", "0.12 µg/mL"],
  ["CNC(CC(C)C)C(=O)NC1C(=O)NC(CC(N)=O)C(=O)NC2C(=O)NC3C(=O)NC(C(=O)NC(C(=O)NCCOCCOCCN)c4cc(O)cc(O)c4-c4cc3ccc4O)C(O)c3ccc(c(Cl)c3)Oc3cc2cc(c3OC2OC(CO)C(O)C(O)C2OC2CC(C)(NCc3ccc(-c4ccc(Cl)cc4)cc3)C(O)C(C)O2)Oc2ccc(cc2Cl)C1O (stereo not drawn) [Compound 9]", "methicillin-susceptible S. aureus (MSSA, 22)", "MIC 50%", "0.12 µg/mL"],
  ["CCCCCCCCCCNCCNC1(C)CC(OC2C(Oc3c4cc5cc3Oc3ccc(cc3Cl)C(O)C3NC(=O)C(NC(=O)C5NC(=O)C(CC(N)=O)NC(=O)C(NC(=O)C(CC(C)C)NC)C(O)c5ccc(c(Cl)c5)O4)c4ccc(O)c(c4)-c4c(O)cc(O)cc4C(C(=O)NCCOCCOCCN)NC3=O)OC(CO)C(O)C2O)OC(C)C1O (stereo not drawn) [Compound 2]", "methicillin-susceptible S. aureus (MSSA, 22)", "MIC 50%", "0.03 µg/mL"]
]}
